Where these numbers come from: the supplement of paper PMC10567573

Items are presented alongside their recorded protein stability index.
B1: BEX1 (parent)
chain: HSLRAVSTDPPHHDHHDEFCLMP

variants of: B1; assay: protein stability index of a GFP-peptide fusion (GPS, HEK-293T) (PSI 1-6); higher = more stable; details: c terminus: native;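 further: lentivirally expressed fusions sorted by FACS into six bins by GFP to DsRed ratio, PSI derived from sequencing read proportions per bin multiplied by bin number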

item_sequence	protein stability index
HSLRAVSTDPPHHDHHDEFCMMP [L21M]	2.21
HSLRAVSTDPPHHDHHWEFCLMP [D17W]	3.5
HSLRAVSTDPPHHDHHDEFCDMP [L21D]	2.46
HSLRAVSTDPPHHDHHDEFWLMP [C20W]	3.13
HSLRAVSTDPPHHDHHDEFCLTP [M22T]	3.4
HSLNAVSTDPPHHDHHDEFCLMP [R4N]	2.64
TSLRAVSTDPPHHDHHDEFCLMP [H1T]	2.54
HSLRAVSTDPPHHDHHPEFCLMP [D17P]	2.96
HSLRAVSTDPPHHDHADEFCLMP [H16A]	2.52
HSLRAVSTDPPHHDHHDEFCLYP [M22Y]	2.35
HSLRAVSTDPPHHDHIDEFCLMP [H16I]	1.65
HLLRAVSTDPPHHDHHDEFCLMP [S2L]	2.93
HSLRAVVTDPPHHDHHDEFCLMP [S7V]	2.7
HSLRAVSTDPPHHDHHDEFPLMP [C20P]	1.97
HSLRAVSTDPPWHDHHDEFCLMP [H12W]	3.29
HSLRAVSTDPHHHDHHDEFCLMP [P11H]	2.62
HSLLAVSTDPPHHDHHDEFCLMP [R4L]	3.03
HSLRAVSTDPPHHDHHDEFCAMP [L21A]	1.67
HSLRAVSTDPPHHDHHDEECLMP [F19E]	2.82
HSLRAVSTDPPHHDHHDEKCLMP [F19K]	1.59
HELRAVSTDPPHHDHHDEFCLMP [S2E]	2.29
HSLRAVSTDPPHHDMHDEFCLMP [H15M]	2.16
HTLRAVSTDPPHHDHHDEFCLMP [S2T]	2.11
HSLRAVSTDIPHHDHHDEFCLMP [P10I]	3.15
HSLRAVSTDPDHHDHHDEFCLMP [P11D]	2.3
HSLRAVSTDPSHHDHHDEFCLMP [P11S]	2.58
HSLRAVSTDPPHPDHHDEFCLMP [H13P]	2.23
HSLRAVSTDPPHHDHNDEFCLMP [H16N]	2.06
HSLRYVSTDPPHHDHHDEFCLMP [A5Y]	2
HSLRAVSTDPPLHDHHDEFCLMP [H12L]	2.83
HSWRAVSTDPPHHDHHDEFCLMP [L3W]	2.47
HSLRHVSTDPPHHDHHDEFCLMP [A5H]	1.69
HSLRAVSTDPPHHLHHDEFCLMP [D14L]	2.33
HSLRASSTDPPHHDHHDEFCLMP [V6S]	3.49
HSLRAVSVDPPHHDHHDEFCLMP [T8V]	2.82
HSLRAVSTWPPHHDHHDEFCLMP [D9W]	1.81
HSLRAVSGDPPHHDHHDEFCLMP [T8G]	2.59
ASLRAVSTDPPHHDHHDEFCLMP [H1A]	1.49
HSLPAVSTDPPHHDHHDEFCLMP [R4P]	2.6
HSLRAVSHDPPHHDHHDEFCLMP [T8H]	1.79
HSLRAVSTDPPHDDHHDEFCLMP [H13D]	2.18
HSLVAVSTDPPHHDHHDEFCLMP [R4V]	1.96
HSLRAVSTDPPHHDHHDEFCLNP [M22N]	2.52
HSLRSVSTDPPHHDHHDEFCLMP [A5S]	2.34
HSLSAVSTDPPHHDHHDEFCLMP [R4S]	2
HSLRAVSTDPPHHDHHDEPCLMP [F19P]	2.79
HSLRAVSTDPPHHDHHDEFCLMS [P23S]	2.77
HSLIAVSTDPPHHDHHDEFCLMP [R4I]	1.55
HSLRCVSTDPPHHDHHDEFCLMP [A5C]	2.2
HSLRAVSTDWPHHDHHDEFCLMP [P10W]	2.88
HSLRAVSTNPPHHDHHDEFCLMP [D9N]	1.93
HSLRAVSTDPPHHDCHDEFCLMP [H15C]	4.24
HSLRAVSTDPLHHDHHDEFCLMP [P11L]	4.46
HSLRAVSTCPPHHDHHDEFCLMP [D9C]	3.11
HSLRAVSTDPPHHDHQDEFCLMP [H16Q]	2.17
HMLRAVSTDPPHHDHHDEFCLMP [S2M]	2.38
HSLRWVSTDPPHHDHHDEFCLMP [A5W]	4.16
HSLRAVSTHPPHHDHHDEFCLMP [D9H]	1.85
HSLRAVSTDPPHHDHHDEFCLVP [M22V]	2.75
HQLRAVSTDPPHHDHHDEFCLMP [S2Q]	2.68
HSLRAVSTDPPHHDHCDEFCLMP [H16C]	2.44
HSLRAVSTDPPHHDHHDEFMLMP [C20M]	2.16
HSLRAVSTDPPHYDHHDEFCLMP [H13Y]	2.08
RSLRAVSTDPPHHDHHDEFCLMP [H1R]	2.35
HSLRAVSTDPPHHDHHDKFCLMP [E18K]	3.01
HSLRAVSIDPPHHDHHDEFCLMP [T8I]	2.13
HSLRAVSTDPPHHDHHDEFCQMP [L21Q]	2.14
HSLRAVSTDPPHHDHHDEFCLML [P23L]	2.66
HSLRAKSTDPPHHDHHDEFCLMP [V6K]	2.02
HSLRAVSTDPPHHDHHDEFCLMH [P23H]	3.59
HSHRAVSTDPPHHDHHDEFCLMP [L3H]	2.9
HSLRAVSTDPPHHDHHDEFCLMR [P23R]	2.45
HSLRQVSTDPPHHDHHDEFCLMP [A5Q]	2
HSLRAVSTDPPHHDHHDEFCLMD [P23D]	4.48
HSLDAVSTDPPHHDHHDEFCLMP [R4D]	2.54
HSLRAVSKDPPHHDHHDEFCLMP [T8K]	2.99
HSLRAVSTDPPHHDQHDEFCLMP [H15Q]	2.79
HSLRAVSTDPPHHDHGDEFCLMP [H16G]	1.99
HSLREVSTDPPHHDHHDEFCLMP [A5E]	2.01
HSLRAVSTDPFHHDHHDEFCLMP [P11F]	1.5
HSLRAVSTDPPCHDHHDEFCLMP [H12C]	2.4
